assay_target: human glucagon receptor (GCGR) (human, UniProt P47871 26-477)
assay: cell-based or functional assay
Where no end group is shown, it is not given here. [ ]: non-standard residue; d: D form. Formula III = not defined here; Formula II = not defined here; Aib = CC(C)(N)C(=O)O
measured_parameter: GluR pEC 50 (pEC50)
# value in pEC50; strip the unit string

Problem: Which GluR pEC 50 value is on record for YSHGTFTSDYSKYLDK(Formula III)ARAQEFVKWLEDEPSSGAPPPS-NH2 (reading uncertain) [Compound B47] ?
Result: 10.8

Problem: Which GluR pEC 50 value is on record for YSHGTFTSDYSKYLD[Aib]KRAQEFVIWLEDEPSSK(Formula II)APPPS-OH (reading uncertain) [Compound B25] ?
Result: 10.5

Problem: Which GluR pEC 50 value is on record for YSQGTFTSDYSKYLDK(Formula II)ARAQEFVKWLEDEPKSKSPPPS-NH2 (reading uncertain) [Compound B35] ?
Result: 11.1

Problem: Which GluR pEC 50 value is on record for WSQGTFTSDYSKYLDK(Formula III)KRAQEFV[Aib]WLEDEPSSGAPPPS-OH (reading uncertain) [Compound B23] ?
Result: 9.5

Problem: Which GluR pEC 50 value is on record for WSQGTFTSDK(Formula II)SKYLD[Aib]KRAQEFV[Aib]WLEDEPSSGAPPPS-OH (reading uncertain) [Compound B20] ?
Result: 11.1
